test system: A498; assay: NCI tumour cell line growth inhibition, 48 h
Active and inactive are the calls of the source. No stated cut-off is given here; in the data, active = GI50 up to about 1.1 µM and inactive = higher. Non-standard residues stand in square brackets, D forms with d. Residues, ends and D or L forms follow the SMILES beside them. *: point of attachment. Ac5c = NC1(C(=O)O)CCCC1; Boc = CC(C)(C)OC(=O)*; tBu = CC(C)(C)*
Assignment: determine reported GI50 for the given compounds.

Request: Query (compound): C=CCN1C(=O)CS/C1=N\NC(=O)CSc1nc2ccccc2c(=O)n1CC ; field requested: GI50
Response: 35 µM (inactive)

Request: Query (compound): CC(OC(C)(C)C)C(NC(=O)C(CCCCNC(=O)OC(C)(C)C)NC(=O)C(Cc1c[nH]c2ccccc12)NC(=O)C(N)Cc1ccccc1)C(=O)NC(Cc1ccccc1)C(=O)NC1(C(=O)O)CCCC1 (centres undefined) (H-FWK(Boc)T(tBu)F[Ac5c]-OH; configuration not given here) ; field requested: GI50
Response: > 100 µM (inactive)

Request: Query (compound): C=C1C[C@@H]2O[C@H]3[C@H]4[C@@H](C[C@@H](C)[C@@H](OC(C)=O)[C@H]42)[C@@H](C)CO[C@@]3(C)[C@H](OC(=O)CCCCCCC)CC1=O ; field requested: GI50
Response: 17.2 µM (inactive)

Request: Query (compound): O=C(C1OC1c1cccc([N+](=O)[O-])c1)C12CC3CC(CC(C3)C1)C2 (centres undefined) ; field requested: GI50
Response: 5.13 µM (inactive)

Request: Query (compound): CC(C)(C)/C(O)=C\c1nc2cc(F)c(F)cc2[nH]c1=O ; field requested: GI50
Response: > 100 µM (inactive)

Request: Query (compound): C=CCN(c1cc(OC)c2[nH]c(C(=O)OCC)c(C)c2c1[N+](=O)[O-])S(C)(=O)=O ; field requested: GI50
Response: 25.8 µM (inactive)

Request: Query (compound): Cc1cn(C2CC(O)C(CO[Si](C)(C)C(C)(C)C)OC2OC(C)C)c(=O)[nH]c1=O (centres undefined) ; field requested: GI50
Response: > 10 µM (inactive)

Request: Query (compound): COc1cc2c(c(O)c1OC)C(O)C1CCC(=O)N1C2c1cccc2ccccc12 (centres undefined) ; field requested: GI50
Response: > 100 µM (inactive)

Request: Query (compound): CCSCCCCC(c1ccc(O)cc1)C(C)(CC)c1ccc(O)cc1 (centres undefined) ; field requested: GI50
Response: > 100 µM (inactive)

Request: Query (compound): O=C(CCc1ccc(O)c(O)c1)c1ccc(O)c(O)c1O ; field requested: GI50
Response: 17.9 µM (inactive)

Request: Query (compound): CC/C=C/C(CC)C/C(C)=C\[C@]1(CC)C[C@H](CC)[C@H](CC(=O)O)OO1 (some centres undefined) ; field requested: GI50
Response: 1.53 µM (inactive)

Request: Query (compound): Nc1nc(Cl)cc(NCC2(CO)CC(CCCCc3ccccc3)C2)n1 (centres undefined) ; field requested: GI50
Response: 18.1 µM (inactive)

Request: Query (compound): Cc1c(N2CCOCC2)nc2ccc(Cl)cc2c1-c1ccccc1 ; field requested: GI50
Response: > 100 µM (inactive)

Request: Query (compound): O=C1C2=Cc3ccccc3CCN2c2ccc([N+](=O)[O-])cc21 ; field requested: GI50
Response: 35.9 µM (inactive)

Request: Query (compound): O=C1OC(c2ccccc2)=N/C1=C\c1ccc(Br)cc1 ; field requested: GI50
Response: > 100 µM (inactive)

Request: Query (compound): CN1C(=O)c2cccc3c([N+](=O)[O-])ccc(c23)C1=O ; field requested: GI50
Response: 2.65 µM (inactive)

Request: Query (compound): COC(=O)c1ccccc1/C=C1\Cc2cc(C)cc(C)c2C1=O ; field requested: GI50
Response: > 100 µM (inactive)

Request: Query (compound): CCOc1ccc(/C=C/C(=O)c2sc(NNC(C)=O)nc2C)cc1 ; field requested: GI50
Response: > 100 µM (inactive)

Request: Query (compound): COC(=O)/C(C#N)=C(\N)C(Cl)(Cl)Cl ; field requested: GI50
Response: 3.4 µM (inactive)

The reported numbers originate from ChEMBL document CHEMBL1201862.
